Target: KRAS G12V (Homo sapiens (Human), UniProt P01116+P62937, G12V)
Sequence (P01116-2 other isoform, or with tags, fused parts or gaps G12V, one chain of several): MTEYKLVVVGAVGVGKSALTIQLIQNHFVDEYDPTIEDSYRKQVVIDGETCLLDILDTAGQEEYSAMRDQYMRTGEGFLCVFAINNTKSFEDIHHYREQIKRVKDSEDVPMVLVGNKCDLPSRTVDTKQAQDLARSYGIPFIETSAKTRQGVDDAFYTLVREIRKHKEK
Assay: Ras-Raf (BRAF RBD) disruption / FRET / MOA assay, KRAS G12V
Type: biochemical
Conditions: read-out: IC50* KRAS G12V FRET data
testReadout: IC50

## Input Could you share which IC50 value was measured for C=CC(=O)N1CCO[C@H]2CN(C(=O)N(C)[C@H](C(=O)N[C@H]3Cc4nc(n(C)n4)-c4ccc5c(c4)c(c(-c4cccnc4[C@H](C)OC)n5CC(F)(F)F)CC(C)(C)COC(=O)[C@@H]4CCCN(N4)C3=O)C(C)C)C[C@H]21 (atropisomer, axis not shown) [Example A575] ?
## Output 1000 to 10000 nM

## Input Then this molecule: CC#CC(=O)N1CC[C@H](C(=O)N(C)[C@H](C(=O)N[C@H]2Cc3cccc(c3)-c3ccc4c(c3)c(c(-c3cccnc3[C@H](C)OC)n4CC)CC(C)(C)COC(=O)[C@@H]3CCCN(N3)C2=O)C2CCCC2)C1 (atropisomer, axis not shown) [Example A310]
## Output 1000 to 10000 nM

## Input Then this molecule: C=CC(=O)N1CC[C@H](C(=O)N(C)[C@H](C(=O)N[C@H]2Cc3nc(cs3)-c3ccc4c(c3)c(c(-c3cc5c(nc3[C@H](C)OC)CCN(C)C5)n4CC)CC(C)(C)COC(=O)[C@@H]3CCCN(N3)C2=O)C(C)C)C1 (atropisomer, axis not shown) [Example A472]
## Output 1000 to 10000 nM

## Input Then this molecule: C=CC(=O)N1C[C@H](C)N(C(=O)N(C)[C@H](C(=O)N[C@H]2Cc3nc(cs3)-c3ccc4c(c3)c(c(-c3cccnc3[C@H](C)OC)n4CC)CC(C)(C)COC(=O)[C@@H]3CCCN(N3)C2=O)C(C)C)[C@@H](C)C1 (atropisomer, axis not shown) [Example A386]
## Output 100 to 1000 nM

---

Target: KRAS G12S (Homo sapiens (Human), UniProt P01116+P62937, G12S)
Sequence (P01116-2 other isoform, or with tags, fused parts or gaps G12S): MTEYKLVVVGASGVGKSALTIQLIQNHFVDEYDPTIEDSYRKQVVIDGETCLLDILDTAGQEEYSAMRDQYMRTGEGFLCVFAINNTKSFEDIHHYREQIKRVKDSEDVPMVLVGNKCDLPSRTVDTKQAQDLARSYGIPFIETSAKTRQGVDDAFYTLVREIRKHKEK
Sequence (P62937 whole entry): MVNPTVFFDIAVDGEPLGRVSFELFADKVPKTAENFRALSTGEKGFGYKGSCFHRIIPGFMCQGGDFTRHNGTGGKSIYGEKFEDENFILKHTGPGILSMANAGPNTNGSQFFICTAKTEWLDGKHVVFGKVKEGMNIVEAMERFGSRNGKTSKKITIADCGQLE
Assay: Ras-Raf (BRAF RBD) disruption / FRET / MOA assay, KRAS G12S
Format: biochemical
Details: Ras-Raf disruption/FRET/MOA assay; class symbols; read-out: KRAS G12S FRET data IC50
testReadout: IC50

## Input Could you share what IC50 was measured for CCn1c(-c2cccnc2[C@H](C)OC)c2c3cc(ccc31)-c1cc(CF)cc(c1)C[C@H](NC(=O)[C@H](C(C)C)N(C)C(=O)[C@H]1CCN(C(=O)C#CC(C)(C)N(C)C)C1)C(=O)N1CCC[C@H](N1)C(=O)OCC(C)(C)C2 (atropisomer, axis not shown) [Example A658] , tested on KRAS G12S (Homo sapiens (Human), UniProt P01116+P62937, G12S)?
## Output 1 to 10 µM

## Input Then this compound: CCn1c(-c2cccnc2[C@H](C)OC)c2c3cc(ccc31)N1CCC[C@@H](C[C@H](NC(=O)[C@H](C(C)C)N(C)C(=O)C3(F)CCN(C(=O)C#CC(C)(C)N(C)C)CC3)C(=O)N3CCC[C@H](N3)C(=O)OCC(C)(C)C2)C1 (atropisomer, axis not shown) [Example A616]
## Output 1 to 10 µM

## Input Then this compound: CCn1c(-c2ccccc2CN(C)C)c2c3cc(ccc31)-c1cc(O)cc(c1)C[C@H](NC(=O)[C@H](C(C)C)N(C)C(=O)c1ccc(NC(=O)/C=C/CN(C)C)cc1)C(=O)N1CCC[C@H](N1)C(=O)OCC(C)(C)C2 [Example A049]
## Output > 10 µM

## Input Then this compound: C=CC(=O)N1CCO[C@@H]2CN(C(=O)N(C)[C@H](C(=O)N[C@H]3Cc4nc(cs4)-c4ccc5c(c4)c(c(-c4cccnc4[C@H](C)OC)n5CC)CC(C)(C)COC(=O)[C@@H]4CCCN(N4)C3=O)C(C)C)C[C@@H]21 (atropisomer, axis not shown) [Example A714]
## Output 0.1 to 1 µM

## Input Then this compound: CCn1c(-c2cccnc2COC)c2c3cc(ccc31)-c1cccc(c1)C[C@H](NC(=O)[C@H](C(C)C)N(C)C(=O)[C@H]1CCN(C(=O)C#CCN(C)C)C1)C(=O)N1CCC[C@H](N1)C(=O)OCC(C)(C)C2 (atropisomer, axis not shown) [Example A138]
## Output > 10 µM

## Input Then this compound: CCn1c(-c2cccnc2[C@H](C)OC)c2c3cc(ccc31)-c1cccc(c1)C[C@H](NC(=O)[C@H](C(C)C)N(C)C(=O)C1CCN(C(=O)C#C[C@@H]3CC(F)(F)CN3C)C1)C(=O)N1CCC[C@H](N1)C(=O)OCC(C)(C)C2 (some centres unmarked) [Example A526]
## Output 1 to 10 µM

## Input Then this compound: CO[C@@H](C)c1ncccc1-c1nc2ccc3cn2c1CC(C)(C)COC(=O)[C@@H]1CCCN(N1)C(=O)[C@@H](NC(=O)[C@H](C(C)C)N(C)C(=O)[C@H]1CCN(C(=O)C#CC(C)(C)N(C)C)C1)Cc1cccc-3c1 [Example A311]
## Output > 10 µM

## Input Then this compound: C=CC(=O)N1CC[C@H](C(=O)N(C)[C@H](C(=O)N[C@H]2Cc3nc(cs3)-c3ccc4c(c3)c(c(-c3cc(C5=CCN(C)CC5)cnc3[C@H](C)OC)n4CC)CC(C)(C)COC(=O)[C@@H]3CCCN(N3)C2=O)C(C)C)C1 (atropisomer, axis not shown) [Example A521]
## Output 1 to 10 µM
